Data provenance is patent US20210149304A1.

This listing pairs molecules with measured pKa.
assay: physchem
The reply should be a number, written without any unit.

get_value(item= O=C(c1ccccc1O)c1ccccc1O [E(iv), 2,2′-dihydroxybenzophenone] , readout=pKa) returns 7.3

get_value(item= CC(c1ccc(O)cc1)(c1ccc(O)cc1)c1ccc(O)cc1 [E(vi), 1,1,1-tris(4-hydroxyphenyl)ethane] , readout=pKa) returns 10

get_value(item= Cc1cc(CCC(=O)OCC(C)(C)C2OCC3(CO2)COC(C(C)(C)COC(=O)CCc2cc(C)c(O)c(C(C)(C)C)c2)OC3)cc(C(C)(C)C)c1O (stereo not shown) [AO-80] , readout=pKa) returns 12

get_value(item= Cc1cc(O)c(C(C)(C)C)cc1C(C)CC(c1cc(C(C)(C)C)c(O)cc1C)c1cc(C(C)(C)C)c(O)cc1C (stereo not shown) [AO-30] , readout=pKa) returns 11.6
